Measured Relative Affinity of individual entries
# system under test: T1, sIL-6R (soluble IL-6 receptor; SBH Sciences) (human, UniProt P08887 20-365)
# T1 construct: also called human IL-6R
# T1 sequence: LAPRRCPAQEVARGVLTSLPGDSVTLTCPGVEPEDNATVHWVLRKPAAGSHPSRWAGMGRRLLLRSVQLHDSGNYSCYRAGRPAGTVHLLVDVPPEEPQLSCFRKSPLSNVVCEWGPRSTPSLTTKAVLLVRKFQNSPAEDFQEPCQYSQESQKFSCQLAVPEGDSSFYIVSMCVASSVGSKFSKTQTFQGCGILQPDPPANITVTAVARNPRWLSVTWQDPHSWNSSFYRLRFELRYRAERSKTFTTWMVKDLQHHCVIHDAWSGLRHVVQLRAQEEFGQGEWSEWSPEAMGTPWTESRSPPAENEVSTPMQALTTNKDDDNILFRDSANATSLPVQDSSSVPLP
# assay info: SPR (BIAcore 3000), antibody on chip, sIL-6R analyte, 25 C
# Protocol: All SPR measurements were performed on a BIAcore 3000 instrument (GE Biosciences, Piscataway, N.J.). BIAcore Software-BIAcore 3000 Control Software V3.2 was used for the operation and control of the BIAcore 3000 instrument. […] Data was analyzed by using the Kinetics Wizard and the manual fitting programs that are both included with the BiaEvaluation Software V4.1.

Answered examples (5):
# binder, Relative Affinity
data = [
    ("Tocilizumab (antibody, human IgG1, kappa, V domains shown, also called 25; 25(control)) VH: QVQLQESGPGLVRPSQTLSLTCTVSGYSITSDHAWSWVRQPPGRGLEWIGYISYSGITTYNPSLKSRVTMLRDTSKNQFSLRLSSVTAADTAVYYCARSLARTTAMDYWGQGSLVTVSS VL: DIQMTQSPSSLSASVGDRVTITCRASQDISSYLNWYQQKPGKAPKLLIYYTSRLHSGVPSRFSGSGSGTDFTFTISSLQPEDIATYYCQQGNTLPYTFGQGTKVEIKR", "1 fold vs 25 (Tocilizumab)"),
    ("66# (antibody, human IgG1, kappa, V domains shown, also called Sample # 66) VH: QVQLQESGPGLVRPSQTLSLTCTVSGYSITSDHAWSWVRQPPGRGLEWIGFISYSGMTTYNPSLKSRVTMLRDTSKNQFSLRLSSVTAADTAVYYCARSLARMTAMDYWGQGSLVTVSS VL: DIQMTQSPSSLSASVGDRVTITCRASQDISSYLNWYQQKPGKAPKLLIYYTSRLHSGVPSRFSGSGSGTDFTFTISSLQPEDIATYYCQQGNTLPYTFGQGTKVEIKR", "20.2 fold vs 25 (Tocilizumab)"),
    ("206# (antibody, human IgG1, kappa, V domains shown, also called Sample # 206) VH: QVQLQESGPGLVRPSQTLSLTCTVSGYSITSDHAWSWVRQPPGRGLEWIGFISYSGMTTYNPSLKSRVTMLRDTSKNQFSLRLSSVTAADTAVYYCARSLARITAMDYWGQGSLVTVSS VL: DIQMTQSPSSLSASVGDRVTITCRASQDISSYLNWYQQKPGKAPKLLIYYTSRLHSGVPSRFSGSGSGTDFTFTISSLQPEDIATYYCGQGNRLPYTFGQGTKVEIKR", "3800 fold vs 25 (Tocilizumab)"),
    ("202# (antibody, human IgG1, kappa, V domains shown) VH: QVQLQESGPGLVRPSQTLSLTCTVSGYSITSDHAWSWVRQPPGRGLEWIGYISYSGITTYNPSLKSRVTMLRDTSKNQFSLRLSSVTAADTAVYYCARVLARITAMDYWGQGSLVTVSS VL: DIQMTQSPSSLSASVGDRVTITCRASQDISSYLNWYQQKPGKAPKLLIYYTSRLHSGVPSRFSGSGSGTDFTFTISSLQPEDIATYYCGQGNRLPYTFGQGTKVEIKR", "99 fold vs 25 (Tocilizumab)"),
    ("60# (antibody, human IgG1, kappa, V domains shown, also called Sample # 60) VH: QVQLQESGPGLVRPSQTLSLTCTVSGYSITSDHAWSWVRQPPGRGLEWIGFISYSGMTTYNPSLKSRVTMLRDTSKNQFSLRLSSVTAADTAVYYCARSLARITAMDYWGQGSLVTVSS VL: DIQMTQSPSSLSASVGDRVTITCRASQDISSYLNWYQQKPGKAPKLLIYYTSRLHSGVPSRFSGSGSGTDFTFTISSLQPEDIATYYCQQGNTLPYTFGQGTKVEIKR", "13.9 fold vs 25 (Tocilizumab)"),
]

Q. Find the recorded Relative Affinity belonging to 64# (antibody, human IgG1, kappa, V domains shown, also called Sample # 64) VH: QVQLQESGPGLVRPSQTLSLTCTVSGYSITSDHAWSWVRQPPGRGLEWIGFISYSGMTTYNPSLKSRVTMLRDTSKNQFSLRLSSVTAADTAVYYCARCLARMTAMDYWGQGSLVTVSS VL: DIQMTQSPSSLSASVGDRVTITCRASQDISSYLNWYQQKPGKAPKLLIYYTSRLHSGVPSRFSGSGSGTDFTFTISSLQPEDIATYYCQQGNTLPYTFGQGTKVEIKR and report it.
A. 21.4 fold vs 25 (Tocilizumab)

Q. Find the recorded Relative Affinity belonging to 51# (antibody, human IgG1, kappa, V domains shown, also called Sample # 51) VH: QVQLQESGPGLVRPSQTLSLTCTVSGYSITSDHAWSWVRQPPGRGLEWIGYISYSGITTYNPSLKSRVTMLRDTSKNQFSLRLSSVTAADTAVYYCARCLARMTAMDYWGQGSLVTVSS VL: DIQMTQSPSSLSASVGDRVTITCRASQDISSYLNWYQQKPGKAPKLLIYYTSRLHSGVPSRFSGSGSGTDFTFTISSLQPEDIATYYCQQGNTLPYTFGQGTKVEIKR and report it.
A. 6.8 fold vs 25 (Tocilizumab)

Q. Find the recorded Relative Affinity belonging to 201# (antibody, human IgG1, kappa, V domains shown, also called Sample # 201) VH: QVQLQESGPGLVRPSQTLSLTCTVSGYSITSDHAWSWVRQPPGRGLEWIGFISYSGMTTYNPSLKSRVTMLRDTSKNQFSLRLSSVTAADTAVYYCARCLARITAIDFWGQGSLVTVSS VL: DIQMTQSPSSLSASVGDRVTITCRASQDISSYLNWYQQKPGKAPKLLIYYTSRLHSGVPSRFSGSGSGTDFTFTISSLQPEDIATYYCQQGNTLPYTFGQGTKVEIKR and report it.
A. 42.3 fold vs 25 (Tocilizumab)

Each recorded value in this set is attributed to patent US20190315854A1.
